SUBJECT OF TEST: human immuno proteasome (LMP7) (Homo sapiens (Human))
METHOD SUMMARY: Determination of LMP7 activity (fluorescence intensity assay, Suc-LLVY-AMC)
Type: biochemical
COND: incubation for 20 minutes
METRIC NAME: IC50

Study these solved cases before continuing.
{"columns": ["SMILES NOTATION", "REPORTED MEASUREMENT"],
 "data": [
  ["C=CC(=O)N(C)CC(=O)N[C@@H](Cc1ccc(C)c(C)c1)B(O)O", "< 50 nM"],
  ["C=CC(=O)N(CC(=O)N[C@@H](Cc1ccccc1)B(O)O)C(C)C", "50 to 500 nM"],
  ["C=CC(=O)N(CC)CC(=O)N[C@@H](Cc1ccc(C)cc1)B(O)O", "< 50 nM"]
]}

Shift focus to the following entry.
I'd like to know its IC50. The compound in question is `C=CC(=O)N(CC)CC(=O)N[C@@H](Cc1ccc(C)cc1C)B(O)O`
50 to 500 nM

FYI, the data here is from patent US10669289B2.
